Target: soluble guanylate cyclase (sGC), α1 and β1 subunits of guanylate cyclase expressed in Sf9 cells (Homo sapiens, UniProt Q02108+Q02153)
Construct: made in house; host or cells: Sf9 insect cells (baculovirus co-infection)
Sequence (Q02108 1-690): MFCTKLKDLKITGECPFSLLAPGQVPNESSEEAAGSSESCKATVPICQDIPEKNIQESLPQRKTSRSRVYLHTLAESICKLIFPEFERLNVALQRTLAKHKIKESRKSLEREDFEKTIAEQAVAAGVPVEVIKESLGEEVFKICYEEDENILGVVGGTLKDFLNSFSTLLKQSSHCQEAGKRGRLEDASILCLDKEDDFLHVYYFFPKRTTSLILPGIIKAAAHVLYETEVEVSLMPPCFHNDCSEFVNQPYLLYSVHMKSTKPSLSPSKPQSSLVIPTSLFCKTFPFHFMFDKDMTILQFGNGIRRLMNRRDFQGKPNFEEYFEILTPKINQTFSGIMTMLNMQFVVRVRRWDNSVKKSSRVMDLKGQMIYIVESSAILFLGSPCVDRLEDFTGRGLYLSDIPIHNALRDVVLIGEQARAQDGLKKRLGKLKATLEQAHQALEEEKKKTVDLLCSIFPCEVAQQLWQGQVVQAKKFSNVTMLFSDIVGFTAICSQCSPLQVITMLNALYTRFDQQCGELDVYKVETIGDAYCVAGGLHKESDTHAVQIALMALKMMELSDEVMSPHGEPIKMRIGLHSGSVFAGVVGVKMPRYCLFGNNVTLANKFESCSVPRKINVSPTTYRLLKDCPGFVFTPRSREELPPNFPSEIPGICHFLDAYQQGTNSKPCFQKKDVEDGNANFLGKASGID
Sequence (Q02153 1-619): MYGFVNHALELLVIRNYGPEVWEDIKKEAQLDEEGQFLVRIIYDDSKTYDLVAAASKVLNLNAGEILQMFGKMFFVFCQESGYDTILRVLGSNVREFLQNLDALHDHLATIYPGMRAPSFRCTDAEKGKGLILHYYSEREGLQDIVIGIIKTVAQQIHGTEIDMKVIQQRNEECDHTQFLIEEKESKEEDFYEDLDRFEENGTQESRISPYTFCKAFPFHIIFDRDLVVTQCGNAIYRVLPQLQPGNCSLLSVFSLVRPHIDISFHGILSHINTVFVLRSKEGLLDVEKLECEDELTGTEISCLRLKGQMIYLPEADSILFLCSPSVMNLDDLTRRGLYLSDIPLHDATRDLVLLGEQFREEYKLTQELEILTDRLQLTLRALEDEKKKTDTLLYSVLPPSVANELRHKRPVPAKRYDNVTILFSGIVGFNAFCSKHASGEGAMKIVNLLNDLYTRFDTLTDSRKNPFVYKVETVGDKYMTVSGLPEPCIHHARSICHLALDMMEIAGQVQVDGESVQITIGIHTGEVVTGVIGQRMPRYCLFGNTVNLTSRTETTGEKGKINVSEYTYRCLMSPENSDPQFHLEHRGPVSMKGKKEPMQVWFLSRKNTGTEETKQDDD
Assay: Guanylate cyclase assay (formation of cyclic GMP from GTP)
Format: biochemical
Conditions: (activity of compound at 100 μM with 1 μM SNP)−(activity of compound at 100 μM)/(activity of SNP at 1 μM)−(basal activity of sGC)
I'd be grateful if you could share measured Mean activation at 100 μM for these entries.
One number for each entry.

Notebook: O=C(/C=C/c1ccccc1SC1CCCC1)NC1CCCCC1O (stereo not shown) [Example 22] , Mean activation at 100 μM read as 3.9

Notebook: Cc1ccc(Sc2ncccc2/C=C/C(=O)NC2CCC(O)CC2)cc1 (stereo not shown) [Example 15] , Mean activation at 100 μM read as 4.7

Notebook: Cc1ccc(Sc2ccccc2/C=C/C(=O)NC(C)CCCC(C)(C)O)c(C)c1 (stereo not shown) [Example 53] , Mean activation at 100 μM read as 1.7

Notebook: CC(CC(=O)N(C)C1CCN(C)CC1)c1ccccc1Sc1ccc(Cl)cc1 (stereo not shown) [Example 10] , Mean activation at 100 μM read as 1.6

Notebook: O=C(/C=C/c1ccccc1Sc1ccccc1)NC1CCCCC1O (stereo not shown) [Example 46] , Mean activation at 100 μM read as 4.3

Notebook: CC(C)CCSc1ccccc1/C=C/C(=O)N1CCCC(O)C1 (stereo not shown) [Example 61] , Mean activation at 100 μM read as 10.2

Notebook: O=C(/C=C/c1cccnc1Sc1ccc(Cl)cc1)NC1CCC(O)CC1 (stereo not shown) [Example 16] , Mean activation at 100 μM read as 3.6

Notebook: CC(O)CCCNC(=O)CCc1ccccc1Sc1ccc(Cl)cc1 (stereo not shown) [Example 9] , Mean activation at 100 μM read as 4.0

Hey, quick one: what's Mean activation at 100 μM for each of these?
1. O=C(/C=C/c1ccccc1Sc1ccc(Cl)cc1Cl)NCCCCO [Example 29]
2. O=C(CCc1ccccc1Sc1ccc(Cl)cc1)NC1CCC(O)CC1 (stereo not shown) [Example 4]
3. O=C(/C=C/c1ccccc1Sc1ccc(Cl)cc1)NC1CCCCC1O (stereo not shown) [Example 40]
4. O=C(CCc1ccccc1Sc1ccc(Cl)cc1)NCCCCO [Example 1]
5. Cc1ccc(Sc2ccccc2CCC(=O)NCCCCO)cc1 [Example 5]
6. CC(C)CCSc1ccccc1/C=C/C(=O)NC1CCCCC1O (stereo not shown) [Example 56]
7. CC(C)CCSc1ccccc1/C=C/C(=O)NC1CCC(O)CC1 (stereo not shown) [Example 55]

1: 2.9; 2: 2.6; 3: 6.3; 4: 2.4; 5: 5.1; 6: 8.3; 7: 5.3

###

Molecular target: soluble guanylate cyclase (sGC), α1 and β1 subunits of guanylate cyclase expressed in Sf9 cells (Homo sapiens, UniProt Q02108+Q02153)
Construct: made in house; host or cells: Sf9 insect cells (baculovirus co-infection)
Test: Guanylate cyclase assay (formation of cyclic GMP from GTP)
Type: biochemical
Settings: compound at 100 μM with 1 μM sodium nitro prusside (SNP); normalized with the activity of 100 μM YC-1 (without SNP) as 100%
Grouping by measured Mean efficacy of compound combined with 1 μM of SNP, [%] is done with the following cut points: bucket A: < 80%; bucket B: ≥ 80% and < 200%; bucket C: ≥ 200%

Below, 3 molecules whose answers are already recorded.
Where would O=C(/C=C/c1ccccc1Sc1ccc(Cl)cc1)NC1CCCCC1O (stereo not drawn) land among the classes by reported Mean efficacy of compound combined with 1 μM of SNP, [%]?
bucket C

Where would CC(C)CCSc1ccccc1/C=C/C(=O)NC1CCCCC1O (stereo not drawn) land among the classes by reported Mean efficacy of compound combined with 1 μM of SNP, [%]?
bucket C

Where would O=C(/C=C/c1ccccc1SC1CCCC1)NC1CCC(O)CC1 (stereo not drawn) land among the classes by reported Mean efficacy of compound combined with 1 μM of SNP, [%]?
bucket C

Continuing:
Where would O=C(/C=C/c1cc(F)ccc1Sc1ccc(Cl)cc1)NCCCCO land among the classes by reported Mean efficacy of compound combined with 1 μM of SNP, [%]?
bucket B

Where would COc1ccc(Sc2ccccc2/C=C/C(=O)NC2CCC(O)CC2)cc1 (stereo not drawn) land among the classes by reported Mean efficacy of compound combined with 1 μM of SNP, [%]?
bucket C

Where would CC(C)Sc1ccccc1/C=C/C(=O)NC1CCC(O)CC1 (stereo not drawn) land among the classes by reported Mean efficacy of compound combined with 1 μM of SNP, [%]?
bucket A

Where would O=C(CCc1ccccc1Sc1ccc(Cl)cc1)NCCCCCO land among the classes by reported Mean efficacy of compound combined with 1 μM of SNP, [%]?
bucket A

Where would O=C(/C=C/c1ccccc1Sc1ccc(Cl)cc1)NCCCCO land among the classes by reported Mean efficacy of compound combined with 1 μM of SNP, [%]?
bucket C

Where would CC(C)CCSc1ccccc1/C=C/C(=O)N1CCC(O)CC1 land among the classes by reported Mean efficacy of compound combined with 1 μM of SNP, [%]?
bucket B

Where would CC(C)CCSc1ccccc1/C=C/C(=O)NC1CCC(O)CC1 (stereo not drawn) land among the classes by reported Mean efficacy of compound combined with 1 μM of SNP, [%]?
bucket C

Where would Cc1ccc(Sc2ccccc2CCC(=O)NCCCCO)cc1 land among the classes by reported Mean efficacy of compound combined with 1 μM of SNP, [%]?
bucket B

Where would O=C(CCc1ccccc1Sc1ccc(Cl)cc1)NCCCCO land among the classes by reported Mean efficacy of compound combined with 1 μM of SNP, [%]?
bucket A

Where would CC(CCCC(C)(C)O)NC(=O)CCc1ccccc1Sc1ccc(Cl)cc1 (stereo not drawn) land among the classes by reported Mean efficacy of compound combined with 1 μM of SNP, [%]?
bucket B

###

Molecular target: soluble guanylate cyclase (sGC), α1 and β1 subunits of guanylate cyclase expressed in Sf9 cells (Homo sapiens, UniProt Q02108+Q02153)
Construct: made in house; host or cells: Sf9 insect cells (baculovirus co-infection)
Assay: Guanylate cyclase assay (formation of cyclic GMP from GTP)
Format: biochemical
Details: (activity of compound at 100 μM with 1 μM SNP)−(activity of compound at 100 μM)/(activity of SNP at 1 μM)−(basal activity of sGC)
Values of Mean activation at 100 μM greater than or equal to 4 map to Met; values below map to Not met.

Say whether Cc1ccc(Sc2ccccc2/C=C/C(=O)NC2CCC(O)CC2)cc1 (stereo not shown) shows Mean activation at 100 μM of 4 or more.
Met

Continuing:
Say whether O=C(/C=C/c1cc(F)ccc1Sc1ccc(Cl)cc1)NCCCCO shows Mean activation at 100 μM of 4 or more.
Met

Say whether O=C(/C=C/c1cccnc1Sc1ccccc1Cl)NC1CCC(O)CC1 (stereo not shown) shows Mean activation at 100 μM of 4 or more.
Met

Say whether OCc1ccc(-c2nn(Cc3ccccc3)c3ccccc23)o1 [YC-1, 1-Benzyl-3-hydroxymethyl-2-furylindazole, reference compound] shows Mean activation at 100 μM of 4 or more.
Not met

Say whether O=C(/C=C/c1ccccc1SC1CCCCC1)NC1CCCCC1O (stereo not shown) shows Mean activation at 100 μM of 4 or more.
Not met

Say whether CC(CCCC(C)(C)O)NC(=O)CCc1ccccc1Sc1ccc(Cl)cc1 (stereo not shown) shows Mean activation at 100 μM of 4 or more.
Not met

Say whether O=C(/C=C/c1ccccc1Sc1ccc(Cl)cc1)NC1CCC(O)CC1 (stereo not shown) shows Mean activation at 100 μM of 4 or more.
Not met

Say whether CC(C)CCSc1ccccc1/C=C/C(=O)NCCCO shows Mean activation at 100 μM of 4 or more.
Met

Say whether O=C(/C=C/c1ccccc1SC1CCCC1)NC1CCC(O)CC1 (stereo not shown) shows Mean activation at 100 μM of 4 or more.
Met

Say whether O=C(CCc1cccc(F)c1Sc1ccc(Cl)cc1)NCCCCO shows Mean activation at 100 μM of 4 or more.
Not met
